# Test Target: Beta-2 adrenergic receptor (Homo sapiens)
# Assay: agonist-induced loss of surface beta2AR – cell-based, FAP fluorogen, flow cytometry, validation set, pilot screen (AID 504459);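 further: agonist-driven loss of surface beta2AR via internalization measured by FAP dye flow cytometry; reference of the scale not given here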
# Applied Conditions: Am2.2-beta2AR cells, at 10 µM
Calls of active or inactive are those of the source.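 How the source made its calls: active means percent response above 42, roughly 3 SD of non-fluorescent test compounds; inactive means the rest.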
Possible outcomes: label 1 (active), label 0 (inactive)

>  <Compound>
CCN(CC)c1ccc([C@H]2[C@@H]3CCCC[C@]3(O)CCN2CC(=O)NCc2ccco2)cc1

>  <Assigned Class>
label 1

$$$$
>  <Compound>
Cc1cc(=O)oc2c(CN(C)Cc3ccccc3)c(O)ccc12

>  <Assigned Class>
label 0

$$$$
>  <Compound>
Cc1ccc2[nH]c3c(=O)n(CCc4cnc[nH]4)cnc3c2c1

>  <Assigned Class>
label 0

$$$$
>  <Compound>
C[C@@H]1C[C@H]2[C@@H]3C[C@H](F)C4=CC(=O)C=C[C@]4(C)[C@@]3(F)[C@@H](O)C[C@]2(C)[C@@]1(O)C(=O)COC(=O)C(C)(C)C

>  <Assigned Class>
label 0

$$$$
>  <Compound>
CN(C)c1ccc(C(CN)c2c[nH]c3ccccc23)cc1 (stereo not drawn)

>  <Assigned Class>
label 0

$$$$
>  <Compound>
CC(=O)Nc1ccc2[nH]c(C)c(CC=C(Cl)Cl)c(=O)c2c1

>  <Assigned Class>
label 0

$$$$
>  <Compound>
O=c1[nH]cc(F)c(=O)[nH]1

>  <Assigned Class>
label 0

$$$$
>  <Compound>
CC(=O)c1cccc(NC(=O)N[C@@H](CC(C)C)C(=O)O)c1

>  <Assigned Class>
label 0

$$$$
>  <Compound>
Cc1coc2cc3oc(=O)c(CCC(=O)O)c(C)c3cc12

>  <Assigned Class>
label 0

$$$$
>  <Compound>
COCC(C)NC(=O)c1ccc(CN2CCc3ccccc3C2)cc1 (stereo not drawn)

>  <Assigned Class>
label 0

$$$$
>  <Compound>
NS(=O)(=O)c1cc(C2(O)NC(=O)c3ccccc32)ccc1Cl (stereo not drawn)

>  <Assigned Class>
label 0

$$$$
>  <Compound>
CCOc1ccc2nc(N/C(N)=N/S(C)(=O)=O)nc(C)c2c1

>  <Assigned Class>
label 0

$$$$
>  <Compound>
CC1CCc2cc(F)cc3c(=O)c(C(=O)O)cn1c23 (stereo not drawn)

>  <Assigned Class>
label 0

$$$$
>  <Compound>
O=C(O)CCNC(=O)c1ccccc1

>  <Assigned Class>
label 0

$$$$
>  <Compound>
COc1ccc(-c2cc(=O)oc3cc(OC(C)C(=O)O)ccc23)cc1 (stereo not drawn)

>  <Assigned Class>
label 0

$$$$
>  <Compound>
CC1=C(C)C(=O)C(CCCCC#CCCCC#CCO)=C(C)C1=O

>  <Assigned Class>
label 0

$$$$
>  <Compound>
COc1ccc(-c2nnc(-c3cc4c(ccc5ccccc54)oc3=O)o2)cc1

>  <Assigned Class>
label 1

$$$$
>  <Compound>
O=c1c2[nH]c3ccccc3c2ncn1CCC1=CCCCC1

>  <Assigned Class>
label 0

$$$$
>  <Compound>
CC12CCC(C(=O)N3CCc4ccccc43)(CC1=O)C2(C)C (stereo not drawn)

>  <Assigned Class>
label 0

$$$$
>  <Compound>
CCN1CCn2c3c(c4cc(Cl)ccc42)CCCC31 (stereo not drawn)

>  <Assigned Class>
label 0

$$$$
>  <Compound>
C#CCN1C(=O)C(O)(c2c(C)[nH]c3ccccc23)c2ccccc21 (stereo not drawn)

>  <Assigned Class>
label 0

$$$$
>  <Compound>
COc1ccc2oc(C)c(C(N)=O)c2c1

>  <Assigned Class>
label 0

$$$$
>  <Compound>
O=C(Nc1ccc(F)c([N+](=O)[O-])c1)c1ccc2c(c1)OCCO2

>  <Assigned Class>
label 0

$$$$
